- ASSAY OVERVIEW: Pharmacokinetics in mice, plasma concentration by LC-MS/MS
- Format: in vivo
- TEST SETTINGS: mouse, sc; BALB/c mice, 10 mg/kg subcutaneous, plasma; read-out: time of peak concentration
READOUT TYPE: Tmax (h)
One number for each entry, in h.

So what does the record say about Tmax for CCCC(CCC)C(=O)OCC1(CO)CC(=C(C)C)C(=O)O1 (stereo not shown) [YSE028] ?
1

###

- System: HIV-1 latently infected U1 cells
- ASSAY OVERVIEW: HIV-1 latency reversal, p24 antigen in supernatant, U1 cells
- Format: cell-based
- TEST SETTINGS: Human immunodeficiency virus 1, 48 h
READOUT TYPE: EC50

CC(=O)O[C@@]12C[C@@H](C)[C@@]3(O)[C@@H](C=C(CO)C[C@]4(O)C(=O)C(C)=C[C@@H]34)[C@@H]1C2(C)C [Prostratin, reference compound] ... 320 nM
CCCC(CCC)C(=O)OCC1(CO)CC(=C(C)C)C(=O)O1 (stereo not shown) ... 1810 nM
CCCCCCCCCC(=O)OCC1(CO)CC(=C(C)C)C(=O)O1 (stereo not shown) ... > 10000 nM

So what does the record say about EC50 for CCCCCCCCCC(=O)OCC1(CO)C/C(=C\CC(C(C)C)C(C)C)C(=O)O1 (stereo not shown) [YOK058E] ?
8240 nM
